Tested on: TK-10 renal
Assay: NCI-60 one-dose screen, 48 h
Details: 10 µM unless noted
Compounds without any hit were thinned out: in the full panel of roughly 83,000, 20% have a hit. Activity calls are given as the source filed them. The calls were made as follows: active = growth percent below 10; inactive = the rest.
Outcomes: active, inactive

COMPOUND: O=C1c2c(c3c4cc(Br)ccc4[nH]c3c3ccc4ccccc4c23)C(=O)N1O
ANSWER_LABEL: inactive
--
COMPOUND: CSc1nnc(-c2sc3nnc(-c4ccccc4)c(-c4ccccc4)c3c2O)o1
ANSWER_LABEL: inactive
--
COMPOUND: CCCCCCCCCCCCSC1=CC(=O)C=CC1=O
ANSWER_LABEL: inactive
--
COMPOUND: O=[N+]([O-])c1ccc2nc(N/N=C/c3ccc(O)cc3)sc2c1
ANSWER_LABEL: inactive
--
COMPOUND: N#Cc1c(O)c2c(c(O)c1C#N)C(=O)c1ccccc1C2=O
ANSWER_LABEL: inactive
--
COMPOUND: Cc1nn(-c2ccccc2)c2nc3nc4c(c(N)c3c(-c3ccc(Cl)cc3)c12)CCCC4
ANSWER_LABEL: inactive
--
COMPOUND: CCOC(=O)c1c(Cl)c2c(n1Cc1cc(OC)cc(OC)c1)-c1oncc1CCC2
ANSWER_LABEL: inactive
--
COMPOUND: COc1ccc(OC2=C(C#N)C(=N)N3c4ccccc4Sc4ccccc4C3N2)cc1 (stereo not given)
ANSWER_LABEL: inactive
--
COMPOUND: CCCN(CCC)c1ccc(/C=C/c2ccc3cc(OCC)ccc3n2)cc1
ANSWER_LABEL: inactive
--
COMPOUND: COc1ncc(F)c(OC)n1
ANSWER_LABEL: inactive
--
COMPOUND: C=C1C(=O)OC2/C=C(/C)C3(O)OC(C)(CC(OC(=O)C(C)C)C12)CC3OC(C)=O (stereo not given)
ANSWER_LABEL: active
--
COMPOUND: O=c1ccc2ccccc2o1
ANSWER_LABEL: inactive
--
COMPOUND: CCCCC(CCCC)(S(=O)(=O)CC)S(=O)(=O)CC
ANSWER_LABEL: inactive
--
COMPOUND: CCCCCCCC/C=C\CCCCCCCCOc1cccc(CC(=O)NCC[N+]2(C)CCCCC2)c1
ANSWER_LABEL: inactive
--
COMPOUND: N#Cc1c(-c2cccc(F)c2)cc(-c2ccc(Br)s2)[nH]c1=O
ANSWER_LABEL: inactive
--
COMPOUND: FC(F)(F)Oc1ccc2c(c1)C[C@H]1C[C@@H](c3ccoc3)N2O1
ANSWER_LABEL: inactive
--
COMPOUND: O=C(NCc1cccnc1)c1ccc([N+](=O)[O-])o1
ANSWER_LABEL: active
--
COMPOUND: CC(=O)OC[C@H](O)[C@@]1(O)CC[C@H]2[C@@H]3CCC4=CC(=O)CC[C@]4(C)[C@H]3[C@@H](O)C[C@@]21C
ANSWER_LABEL: inactive
--
COMPOUND: CCC(C)[C@H]1O[C@]2(CC[C@@H]1C)C[C@@H]1C[C@@H](C/C=C(\C)[C@@H](OC3C[C@H](OC)C(O[C@H]4C[C@H](OC)[C@@H](O)[C@H](C)O4)[C@H](C)O3)[C@@H](C)/C=C/C=C3\CO[C@@H]4[C@H](O)C(C)=C[C@@H](C(=O)O1)[C@]34O)O2 (stereo not given in full)
ANSWER_LABEL: inactive
--
COMPOUND: O=C(Nc1nc2ccccc2[nH]1)C(=O)Nc1nc2ccccc2[nH]1
ANSWER_LABEL: inactive
